Taken from patent US20190062438A1.

Exercise: state measured IC50 GM-CSF, TF-1 proliferation for each of the binders provided.
Target: T1, human CD131 (human, UniProt P32927 17-897)
T1 sequence: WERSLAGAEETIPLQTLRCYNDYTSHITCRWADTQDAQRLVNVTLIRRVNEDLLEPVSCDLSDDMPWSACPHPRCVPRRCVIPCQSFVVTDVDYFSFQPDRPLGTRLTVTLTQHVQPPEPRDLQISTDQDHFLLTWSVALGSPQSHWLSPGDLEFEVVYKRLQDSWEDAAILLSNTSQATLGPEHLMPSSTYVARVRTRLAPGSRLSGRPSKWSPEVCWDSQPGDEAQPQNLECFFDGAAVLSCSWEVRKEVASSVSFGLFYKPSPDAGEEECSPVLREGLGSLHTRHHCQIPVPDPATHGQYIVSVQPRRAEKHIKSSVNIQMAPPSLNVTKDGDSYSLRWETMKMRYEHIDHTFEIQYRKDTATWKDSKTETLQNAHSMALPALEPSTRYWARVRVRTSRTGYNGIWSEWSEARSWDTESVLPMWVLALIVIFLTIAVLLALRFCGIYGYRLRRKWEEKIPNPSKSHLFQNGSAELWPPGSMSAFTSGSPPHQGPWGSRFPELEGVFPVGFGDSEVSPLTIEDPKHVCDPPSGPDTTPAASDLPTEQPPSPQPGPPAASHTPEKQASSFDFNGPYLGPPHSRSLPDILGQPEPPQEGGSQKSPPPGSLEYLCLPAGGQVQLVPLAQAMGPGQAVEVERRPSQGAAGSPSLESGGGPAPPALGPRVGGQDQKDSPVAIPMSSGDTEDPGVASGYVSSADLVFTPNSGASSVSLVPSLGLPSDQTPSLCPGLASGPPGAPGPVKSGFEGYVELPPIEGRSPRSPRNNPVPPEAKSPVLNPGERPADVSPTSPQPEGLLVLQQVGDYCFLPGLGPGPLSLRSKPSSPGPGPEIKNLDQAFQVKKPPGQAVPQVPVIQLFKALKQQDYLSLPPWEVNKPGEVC
Assay: cell-based or functional assay
One number for each entry, in nM.

9A2-VR39.112 (antibody, V domains shown) VH: EVQLLESGGGLVQPGGSLRLSCAASGFTFPYYHQVWVRQAPGKGLEWVSSINGRGRVTYYADSVKGRFTISRDNSKNTLYLQMNSLRAEDTAVYYCARFYDSFFDIWGQGTMVTVSS VL: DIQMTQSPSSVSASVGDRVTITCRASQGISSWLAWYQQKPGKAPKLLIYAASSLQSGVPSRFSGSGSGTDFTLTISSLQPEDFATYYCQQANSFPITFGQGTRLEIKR	1
9A2-VR39.22 (antibody, V domains shown) VH: EVQLLESGGGLVQPGGSLRLSCAASGFTFQWYHVIWVRQAPGKGLEWVSSINGRGRVTYYADSVKGRFTISRDNSKNTLYLQMNSLRAEDTAVYYCARFYDSFFDIWGQGTMVTVSS VL: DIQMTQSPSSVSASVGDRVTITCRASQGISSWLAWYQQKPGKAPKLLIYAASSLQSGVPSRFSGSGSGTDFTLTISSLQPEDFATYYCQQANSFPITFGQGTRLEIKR	0.5
9A2-VR39.01 (antibody, V domains shown) VH: EVQLLESGGGLVQPGGSLRLSCAASGFTFFWFHHVWVRQAPGKGLEWVSSINGRGRVTYYADSVKGRFTISRDNSKNTLYLQMNSLRAEDTAVYYCARFYDSFFDIWGQGTMVTVSS VL: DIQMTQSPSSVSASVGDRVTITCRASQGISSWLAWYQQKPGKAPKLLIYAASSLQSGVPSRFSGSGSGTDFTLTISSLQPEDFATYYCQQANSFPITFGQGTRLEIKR	0.51

Kindly consider the entry below.
Exercise: Tell us which IC50 GM-CSF, TF-1 proliferation value is on record for 9A2-VR24.19 (antibody, V domains shown) VH: EVQLLESGGGLVQPGGSLRLSCAASGFTFPWYRVHWVRQAPGKGLEWVSSIHTQSKWTYYADSVKGRFTISRDNSKNTLYLQMNSLRAEDTAVYYCARFYDSFFDIWGQGTMVTVSS VL: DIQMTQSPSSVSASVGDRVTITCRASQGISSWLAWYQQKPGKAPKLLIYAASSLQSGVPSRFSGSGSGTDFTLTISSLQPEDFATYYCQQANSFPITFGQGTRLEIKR
Key: 0.98
